Biological target: Vascular endothelial growth factor receptor 2 (Homo sapiens, UniProt P35968)
Sequence (P35968 whole entry): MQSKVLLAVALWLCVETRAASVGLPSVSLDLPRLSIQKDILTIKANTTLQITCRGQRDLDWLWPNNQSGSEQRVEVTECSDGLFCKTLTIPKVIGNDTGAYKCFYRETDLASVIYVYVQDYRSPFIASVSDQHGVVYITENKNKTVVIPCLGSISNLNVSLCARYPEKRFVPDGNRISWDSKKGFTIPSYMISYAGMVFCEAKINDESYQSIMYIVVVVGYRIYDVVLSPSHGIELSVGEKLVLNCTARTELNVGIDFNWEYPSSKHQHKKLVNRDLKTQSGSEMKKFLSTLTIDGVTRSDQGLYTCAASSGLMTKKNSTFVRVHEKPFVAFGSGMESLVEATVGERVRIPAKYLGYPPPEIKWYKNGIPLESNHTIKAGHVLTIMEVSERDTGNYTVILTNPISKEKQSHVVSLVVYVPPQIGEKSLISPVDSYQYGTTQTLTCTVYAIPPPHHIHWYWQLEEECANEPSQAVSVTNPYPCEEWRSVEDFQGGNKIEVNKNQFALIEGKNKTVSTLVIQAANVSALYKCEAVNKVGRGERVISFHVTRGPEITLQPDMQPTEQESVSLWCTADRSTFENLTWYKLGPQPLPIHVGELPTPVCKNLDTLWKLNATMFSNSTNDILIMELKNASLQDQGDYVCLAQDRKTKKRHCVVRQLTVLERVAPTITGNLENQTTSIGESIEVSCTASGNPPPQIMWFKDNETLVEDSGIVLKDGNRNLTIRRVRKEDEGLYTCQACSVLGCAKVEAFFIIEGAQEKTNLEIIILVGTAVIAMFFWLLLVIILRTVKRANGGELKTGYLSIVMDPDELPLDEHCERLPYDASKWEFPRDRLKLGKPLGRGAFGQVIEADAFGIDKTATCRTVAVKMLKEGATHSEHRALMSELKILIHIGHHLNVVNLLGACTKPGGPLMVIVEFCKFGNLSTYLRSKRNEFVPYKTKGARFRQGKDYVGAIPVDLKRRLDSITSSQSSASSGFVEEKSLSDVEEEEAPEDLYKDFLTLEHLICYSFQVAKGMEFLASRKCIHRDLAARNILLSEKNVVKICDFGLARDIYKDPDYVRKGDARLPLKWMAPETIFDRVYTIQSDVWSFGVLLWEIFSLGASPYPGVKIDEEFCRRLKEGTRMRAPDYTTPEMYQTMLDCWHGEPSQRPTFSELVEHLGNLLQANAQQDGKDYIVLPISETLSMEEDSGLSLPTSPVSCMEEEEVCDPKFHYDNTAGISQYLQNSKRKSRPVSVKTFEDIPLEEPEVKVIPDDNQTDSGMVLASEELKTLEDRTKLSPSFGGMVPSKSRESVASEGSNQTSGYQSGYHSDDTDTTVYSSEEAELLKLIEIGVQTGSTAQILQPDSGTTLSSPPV
Assay: Inhibition of recombinant N terminal GST-tagged human KDR (805 to 1356) expressed in baculovirus infected Sf9 cells after 90 mins by caliper mobility shift assay
Recorded log10(IC50) by entry
experimental readout: log10(IC50) (log10 of the value in nM)

- entry smiles: "Cc1cnc(CNc2ncc(Br)c(Nc3cc(C)[nH]n3)n2)cn1"
  experimental readout: "log10(IC50)"
  experimental result: 3.00
- entry smiles: "Cc1cc(CNc2nccc(Nc3cc(CO)[nH]n3)n2)on1"
  experimental readout: "log10(IC50)"
  experimental result: 4.30
- entry smiles: "CCc1cc(Nc2nc(NCc3cc(-c4ccccn4)no3)ncc2Br)n[nH]1"
  experimental readout: "log10(IC50)"
  experimental result: 3.50
- entry smiles: "Cc1cc(CNc2nccc(Nc3cc(CCc4ccccc4)[nH]n3)n2)on1"
  experimental readout: "log10(IC50)"
  experimental result: 2.10
- entry smiles: "Cc1cc(CNc2ncc(Cl)c(Nc3cc(C)[nH]n3)n2)on1"
  experimental readout: "log10(IC50)"
  experimental result: 2.70
- entry smiles: "COCCCc1cc(Nc2nc(NCc3cc(C)no3)ncc2Br)[nH]n1"
  experimental readout: "log10(IC50)"
  experimental result: 3.10
- entry smiles: "Cc1cc(Nc2nc(NCc3cc(C)no3)ncc2Br)[nH]n1"
  experimental readout: "log10(IC50)"
  experimental result: 2.80
- entry smiles: "COCCCc1cc(Nc2ccnc(NCc3cc(C)no3)n2)n[nH]1"
  experimental readout: "log10(IC50)"
  experimental result: 3.40
- entry smiles: "Cc1cc(Nc2nc(NCc3cc(C(C)(C)C)no3)ncc2Br)[nH]n1"
  experimental readout: "log10(IC50)"
  experimental result: 3.60
- entry smiles: "Cc1cc(Nc2nc(NCc3cc(C(=O)N4CCCC4)no3)ncc2Br)n[nH]1"
  experimental readout: "log10(IC50)"
  experimental result: 4.20
- entry smiles: "COCCCc1cc(Nc2ccnc(NCc3cc(C(N)=O)no3)n2)[nH]n1"
  experimental readout: "log10(IC50)"
  experimental result: 3.10
- entry smiles: "Cc1cc(Nc2ccnc(NCc3cc(C(N)=O)no3)n2)[nH]n1"
  experimental readout: "log10(IC50)"
  experimental result: 3.10
- entry smiles: "CCCc1cc(Nc2nc(NCc3cccnc3)ncc2Br)n[nH]1"
  experimental readout: "log10(IC50)"
  experimental result: 2.10
- entry smiles: "CC(C)c1cc(Nc2nc(NCc3cccnc3)ncc2Br)n[nH]1"
  experimental readout: "log10(IC50)"
  experimental result: 2.60
- entry smiles: "COc1cc(CCc2cc(Nc3ccnc(NCc4cc(C)on4)n3)n[nH]2)cc(OC)c1"
  experimental readout: "log10(IC50)"
  experimental result: 2.10
- entry smiles: "Cc1cc(Nc2nc(NCCc3ccco3)ncc2Br)n[nH]1"
  experimental readout: "log10(IC50)"
  experimental result: 2.30
- entry smiles: "COc1cc(CCc2cc(Nc3ccnc(NCc4ccccn4)n3)[nH]n2)cc(OC)c1"
  experimental readout: "log10(IC50)"
  experimental result: 2.60
- entry smiles: "CCc1cc(Nc2nc(NCc3ccccn3)ncc2Br)n[nH]1"
  experimental readout: "log10(IC50)"
  experimental result: 2.70
- entry smiles: "Cc1cc(Nc2nc(NCc3ccccn3)ncc2Br)n[nH]1"
  experimental readout: "log10(IC50)"
  experimental result: 3.20
- entry smiles: "Cc1cc(Nc2nc(NCCc3cccnc3)ncc2Br)[nH]n1"
  experimental readout: "log10(IC50)"
  experimental result: 2.80
- entry smiles: "Cc1cc(CNc2ncc(Br)c(Nc3cc(CCc4ccccc4)[nH]n3)n2)on1"
  experimental readout: "log10(IC50)"
  experimental result: 1.40
- entry smiles: "C=CCNc1ncc(Br)c(Nc2cc(C)[nH]n2)n1"
  experimental readout: "log10(IC50)"
  experimental result: 3.00
- entry smiles: "Cc1cc(CCNc2ncc(Br)c(Nc3cc(C)[nH]n3)n2)on1"
  experimental readout: "log10(IC50)"
  experimental result: 2.70
